Reference source for all entries: patent US6737383B1

Crabgrass plant response rating overview
# Test system: crabgrass
# Protocol details: Test B pre/postemergence crabgrass
# Format: in vivo, Digitaria sanguinalis
# Condition description: Rate 62 g/ha, Postemergence; scale of 0 to 10 where 0 is no effect and 10 is complete control
Give the figure only, with no unit attached.

Consider the following illustrative entries.
>  <Molecule>
CC(C)N(C(=O)n1oc(=O)n([C@@H](C)c2ccccc2)c1=O)c1ccccc1 [Compound 173]

>  <Crabgrass plant response rating>
0

$$$$
>  <Molecule>
CC(C)N(C(=O)n1oc(=O)n(C)c1=O)c1ccc(Cl)cc1 [Compound 137]

>  <Crabgrass plant response rating>
7

$$$$
>  <Molecule>
CCN(Cc1ccncc1)C(=O)n1oc(=O)n(C(C)C)c1=O [Compound 189]

>  <Crabgrass plant response rating>
0

$$$$
>  <Molecule>
CC(C)N(C(=O)n1oc(=O)n(C2(C)CC2)c1=O)c1ccc(F)cc1 [Compound 362]

>  <Crabgrass plant response rating>
3

$$$$

API: value(readout= Crabgrass plant response rating, system= crabgrass, query= CC(C)N(C(=O)n1oc(=O)n(C2CCCCCC2)c1=O)c1ccc(F)cc1 [Compound 340] )
0

Try this molecule next: CCN(C(=O)n1oc(=O)n(C(C)C)c1=O)c1nncs1 [Compound 190]
0

Try this molecule next: CC(C)N(C(=O)n1oc(=O)n(CC2CO2)c1=O)c1ccc(F)cc1 (stereo not drawn) [Compound 188]
0

Try this molecule next: COc1ccccc1Cn1c(=O)on(C(=O)N(c2ccc(F)cc2)C(C)C)c1=O [Compound 143]
1

Try this molecule next: Cc1nc(C)c(-n2c(=O)on(C(=O)N(c3ccccc3)C(C)C)c2=O)s1 [Compound 197]
0

====

# System: velvetleaf
# Protocol details: Test B pre/postemergence velvetleaf
# Type: in vivo, Abutilon theophrasti
# Condition description: Preemergence, Rate 500 g/ha; scale 0 to 10, 0 is no effect, 10 is complete control
Value kind: Velvetleaf plant response rating
Give the figure only, with no unit attached.

Consider the following illustrative entries.
>  <Compound>
Cc1nc(Cl)sc1C(C)n1c(=O)on(C(=O)N(c2ccc(F)cc2)C(C)C)c1=O (stereo not drawn)

>  <Velvetleaf plant response rating>
0

$$$$
>  <Compound>
C=C(C)CCn1c(=O)on(C(=O)N(c2ccccc2)C(C)C)c1=O

>  <Velvetleaf plant response rating>
6

$$$$

// next item, Velvetleaf plant response rating requested
Reported Velvetleaf plant response rating for Cc1nc(Cl)sc1C(C)n1c(=O)on(C(=O)N(c2ccc(F)cc2F)C(C)C)c1=O (stereo not drawn) : what is it?
0

====

Soybean plant response rating (0 to 10 scale) overview
# Test system: soybean
# Protocol details: Test B pre/postemergence soybean
# Type: in vivo, Glycine max
# Condition description: Preemergence, Rate 250 g/ha
Give the figure only, with no unit attached.

Consider the following illustrative entries.
>  <Compound>
CCCCn1c(=O)on(C(=O)N(c2ccccc2)C(C)C)c1=O [Compound 556]

>  <Value>
0

$$$$
>  <Compound>
COCCOCn1c(=O)on(C(=O)N(c2ccccc2)C(C)C)c1=O [Compound 564]

>  <Value>
4

$$$$

// next item, Soybean plant response rating (0 to 10 scale) requested
API: value(readout= Soybean plant response rating (0 to 10 scale), system= soybean, query= CC(C)N(C(=O)n1oc(=O)n(CCC(F)(F)F)c1=O)c1ccc(Cl)cc1 [Compound 554] )
3

====

Wild oats plant response rating overview
# Test system: wild oat
# Protocol details: Test B pre/postemergence wild oat
# Assay type: in vivo, Avena fatua
# Condition description: Preemergence, Rate 250 g/ha; scale 0 to 10, 0 is no effect, 10 is complete control

Consider the following illustrative entries.
>  <Compound structure>
CC(C)N(C(=O)n1oc(=O)n(N(C)c2ccccc2)c1=O)c1ccc(F)cc1

>  <Value>
0

$$$$
>  <Compound structure>
CCN(C(=O)n1oc(=O)n(N(C)c2ccccc2)c1=O)C1CCCCC1

>  <Value>
0

$$$$

// next item, Wild oats plant response rating requested
API: value(readout= Wild oats plant response rating, system= wild oat, query= CC(C)N(C(=O)n1oc(=O)n([C@@H](C)c2ccccc2)c1=O)c1ccccc1 )
2

====

# Test system: crabgrass
# Protocol details: Test B pre/postemergence crabgrass
# Format: in vivo, Digitaria sanguinalis
# Condition description: Preemergence, Rate 250 g/ha; scale 0 to 10, 0 is no effect, 10 is complete control
Crabgrass plant response rating overview
Give the figure only, with no unit attached.

Consider the following illustrative entries.
>  <Compound>
CC(C)N(C(=O)n1oc(=O)n([C@@H](C)c2ccccc2)c1=O)c1ccccc1 [Compound 173]

>  <Measurement target>
crabgrass

>  <Value>
8

$$$$
>  <Compound>
CCOP(=O)(OCC)C(C)n1c(=O)on(C(=O)N(c2ccccc2)C(C)C)c1=O (stereo not shown) [Compound 448]

>  <Measurement target>
crabgrass

>  <Value>
4

$$$$
>  <Compound>
Cc1ccc(N(C(=O)n2oc(=O)n(C(C)C)c2=O)C(C)C)cc1 [Compound 132]

>  <Measurement target>
crabgrass

>  <Value>
9

$$$$

// next item, Crabgrass plant response rating requested
Reported Crabgrass plant response rating for CC(C)N(C(=O)n1oc(=O)n(CCC(F)(F)F)c1=O)c1ccc(F)cc1 [Compound 397] : what is it?
10

====

# Test system: surinam grass
# Protocol details: Test B pre/postemergence surinam grass
# Type: in vivo, Brachiaria decumbens
# Condition description: Preemergence, Rate 62 g/ha; scale 0 to 10 (0 no effect, 10 complete control)
Plant response rating, B. signalgrass overview
Give the figure only, with no unit attached.

>  <Compound>
C=C(C)CCn1c(=O)on(C(=O)N(c2ccccc2)C(C)C)c1=O

>  <Measurement target>
surinam grass

>  <Plant response rating, B. signalgrass>
0

$$$$
>  <Compound>
CC(C)N(C(=O)n1oc(=O)n(C(CF)CF)c1=O)c1ccccc1

>  <Measurement target>
surinam grass

>  <Plant response rating, B. signalgrass>
7

$$$$

API: value(readout= Plant response rating, B. signalgrass, system= surinam grass, query= Cc1nc(Cl)sc1C(C)n1c(=O)on(C(=O)N(c2ccccc2)C(C)C)c1=O (stereo not drawn) )
0

====

# Tested on: sugar beet
# Protocol details: Test B pre/postemergence sugar beet
# Format: in vivo, Beta vulgaris
# Condition description: Preemergence, Rate 62 g/ha; scale of 0 to 10 where 0 is no effect and 10 is complete control
Value kind: Sugarbeets plant response rating
Give the figure only, with no unit attached.

Consider the following illustrative entries.
>  <Compound>
CC(C)N(C(=O)n1oc(=O)n(C(C)C2CCC2)c1=O)c1ccc(F)cc1F (centres unmarked)

>  <Sugarbeets plant response rating>
0

$$$$
>  <Compound>
CC(C)N(C(=O)n1oc(=O)n(CC(C)(C)C)c1=O)c1ccccc1

>  <Sugarbeets plant response rating>
0

$$$$
>  <Compound>
CC(C)N(C(=O)n1oc(=O)n(C2CC2)c1=O)c1ccc(F)cc1F

>  <Sugarbeets plant response rating>
3

$$$$
>  <Compound>
CC(C)N(C(=O)n1oc(=O)n(CCCC#N)c1=O)c1ccc(F)cc1F

>  <Sugarbeets plant response rating>
5

$$$$

// next item, Sugarbeets plant response rating requested
Reported Sugarbeets plant response rating for CC(C)N(C(=O)n1oc(=O)n(N(C)c2ccccc2)c1=O)c1ccc(F)cc1 : what is it?
0

====

# Test system: sugar beet
# Protocol details: Test B pre/postemergence sugar beet
# Assay type: in vivo, Beta vulgaris
# Condition description: Preemergence, Rate 125 g/ha; scale of 0 to 10 where 0 is no effect and 10 is complete control
Value kind: Plant response rating, Sugarbeets
Give the figure only, with no unit attached.

Consider the following illustrative entries.
>  <Compound>
CC(C)N(C(=O)n1oc(=O)n(C(C)C2CC2)c1=O)c1ccccc1 (stereo not drawn)

>  <Plant response rating, Sugarbeets>
4

$$$$
>  <Compound>
CC(C)N(C(=O)n1oc(=O)n(CCCCl)c1=O)c1ccccc1

>  <Plant response rating, Sugarbeets>
3

$$$$
>  <Compound>
CCn1ncc(Cn2c(=O)on(C(=O)N(c3ccccc3)C(C)C)c2=O)c1Cl

>  <Plant response rating, Sugarbeets>
0

$$$$
>  <Compound>
CC(C)N(C(=O)n1oc(=O)n(CF)c1=O)c1ccc(F)cc1

>  <Plant response rating, Sugarbeets>
0

$$$$
>  <Compound>
CC(C)N(C(=O)n1oc(=O)n(C(CF)CF)c1=O)c1ccccc1

>  <Plant response rating, Sugarbeets>
10

$$$$

Reported Plant response rating, Sugarbeets for Cc1nc(Cl)sc1C(C)n1c(=O)on(C(=O)N(c2ccccc2)C(C)C)c1=O (stereo not drawn) : what is it?
0

====

# System: corn
# Protocol details: Test B pre/postemergence corn
# Assay type: in vivo, Zea mays
# Condition description: Rate 500 g/ha, Postemergence; scale 0 to 10, 0 is no effect, 10 is complete control
# Experimental: […] At the same time, these crop and weed species were also treated with postemergence applications of test chemicals formulated in the same manner. […] Treated plants and controls were maintained in a greenhouse for twelve to sixteen days, after which all species were compared to controls and visually evaluated. […]
Corn plant response rating overview
Give the figure only, with no unit attached.

Consider the following illustrative entries.
>  <Molecule>
CC(C)N(C(=O)n1oc(=O)n(Cc2nnc(Cl)s2)c1=O)c1ccc(Cl)cc1

>  <Measurement target>
corn

>  <Corn plant response rating>
0

$$$$
>  <Molecule>
CCOC(=O)CC(C(=O)OCC)n1c(=O)on(C(=O)N(c2ccc(Cl)cc2)C(C)C)c1=O (stereo not drawn)

>  <Measurement target>
corn

>  <Corn plant response rating>
0

$$$$

Reported Corn plant response rating for CC(C)N(C(=O)n1oc(=O)n(CC2=NOCCO2)c1=O)c1ccc(F)cc1F : what is it?
3
